The reader will find reported DcR3-His binding, % of irrelevant mAb values listed item by item below.
- TARGET_SYSTEM: T1, human LIGHT (TNFSF14), full length, membrane-bound (214E allele) (human, UniProt O43557 1-240)
- T1 construct: also called membrane LIGHT; human membrane LIGHT
- T1 sequence (O43557 whole entry K214E): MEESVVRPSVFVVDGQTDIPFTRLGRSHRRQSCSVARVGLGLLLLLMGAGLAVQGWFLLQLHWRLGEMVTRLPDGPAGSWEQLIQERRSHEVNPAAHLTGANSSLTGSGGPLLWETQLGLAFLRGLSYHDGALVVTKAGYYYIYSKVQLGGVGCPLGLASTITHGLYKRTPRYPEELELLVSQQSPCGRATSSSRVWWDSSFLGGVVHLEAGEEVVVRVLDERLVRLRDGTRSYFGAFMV
- PROCEDURE_TEXT: DcR3-His (1 nM) competition, EL4-LIGHT, flow cytometry; 3.7 nM
Reply numerically in %, unit not repeated.

Use these answered entries as a reference point.
3E09 (antibody, V domains shown, chimeric human IgG4 (S-to-P, L-to-E at 248), human CL; also called Parental 3E09) VH: EVQLVESGGGLVKPGGSLKLSCEASGFTFSDYYMYWVRQTPEKRLEWVAAIGDGGIYTYYADTVKGRFTISRDNAKNILYLQMSSLKSNDTAMYYCARGTGDGFAYWGQGTLVTVS VL: DIVLTQSPASLAVSLGQRATISCRASESVDSYGNSFMHWYQQKPGQPPKLLIYLASNLESGVPARFSGSGSRTDFTLTIDPVEADDAATYYCQQNNEDPYTFGGGTKLEIK :: 80.4
3C10 (antibody, human IgG4, V domains shown, chimeric human IgG4 (S-to-P, L-to-E at 248), human CL; also called Parental 3C10) VH: EVQLQQSGAELVRPGASVTLSCKASDYTFTDSEIHWVKQTPVHGLEWIGEIDPETGGTAYNQKFKGKATLTADKSSSTAYMELRSLTSEDSAVYYCSRETDYFFDYWGQGTTLTVSS VL: DVVMTQTPAIMSASPGEKVTMTCSASSSVSYMYWYQQKPGSSPRLLIYDTSNLASGVPVRFSGSGSGTSYSLTISRMEAEDAATYYCQQWSSYPLTFGAGTKLELK :: 86.9

Problem: Recall and state the measured DcR3-His binding, % of irrelevant mAb for 3B04 (antibody, human IgG4, V domains shown, chimeric: mouse variable domains on human IgG4 HC (S-to-P and L-to-E at 248) and human CL; also called Parental 3B04; 3B04 chimeric) VH: QVQLQQPGAELVRPGASVTLSCKASGYTFTDYEMHWVKQTPVHGLEWIGEIDPETGDTAYSQKFKGKATLTADKSSSTAYMEFRSLTSEDSAVYYCSRETDYFFDYWGQGTTLTVSS VL: DIQMTQTPASLSASVGETVTITCGASENIYGALNWYQRKQGKSPQLLIYGATNLADGMSSRFSGSGSGRQYSLKISSLHPDDFATYYCQNVLTTPWTFGGGTKLEIKR .
Solution: 78.5

Origin of values: patent US20230035798A1
